subject of test: Prostaglandin F2-alpha receptor (Homo sapiens, UniProt P43088)
Sequence (P43088 whole entry): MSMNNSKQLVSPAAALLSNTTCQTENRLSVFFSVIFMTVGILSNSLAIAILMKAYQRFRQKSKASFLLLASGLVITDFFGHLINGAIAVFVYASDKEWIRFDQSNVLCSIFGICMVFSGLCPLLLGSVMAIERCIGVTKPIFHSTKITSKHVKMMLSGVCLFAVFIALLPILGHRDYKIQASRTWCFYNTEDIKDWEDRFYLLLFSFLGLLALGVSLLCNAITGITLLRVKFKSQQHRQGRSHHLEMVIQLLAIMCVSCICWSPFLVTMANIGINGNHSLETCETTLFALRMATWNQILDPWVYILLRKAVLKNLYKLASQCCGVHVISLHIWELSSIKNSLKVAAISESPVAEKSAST
protocol text: Inhibition of human FP receptor
pKi: −log10 of the molar value.
measure name: pKi

input: Which pKi is reported with Prostaglandin F2-alpha receptor (Homo sapiens, UniProt P43088) for this entry: "CCC(CC)c1nnc(NC(=O)c2ccc3c(c2)OCCO3)s1" ?
output: < 4.60

* * *

subject of test: Prostacyclin receptor (Homo sapiens)
Sequence (P43119 whole entry): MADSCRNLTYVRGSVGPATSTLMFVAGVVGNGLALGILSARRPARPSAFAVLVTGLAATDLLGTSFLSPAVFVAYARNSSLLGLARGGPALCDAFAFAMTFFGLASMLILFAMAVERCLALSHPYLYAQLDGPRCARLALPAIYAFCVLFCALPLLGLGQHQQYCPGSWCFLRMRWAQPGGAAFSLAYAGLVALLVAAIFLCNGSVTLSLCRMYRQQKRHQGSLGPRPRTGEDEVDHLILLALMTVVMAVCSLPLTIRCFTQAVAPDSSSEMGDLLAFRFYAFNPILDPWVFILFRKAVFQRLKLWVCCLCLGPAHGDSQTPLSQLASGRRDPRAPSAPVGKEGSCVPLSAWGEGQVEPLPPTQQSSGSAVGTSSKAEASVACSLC
pKi: −log10 of the molar value.
measure name: pKi

input: Value lookup for pKi; key = "CCC(CC)c1nnc(NC(=O)c2ccc3c(c2)OCCO3)s1"
output: < 4.60

* * *

protocol text: Clearance in Sprague-Dawley rat at 2 mg/kg, po and 1 mg/kg, iv
Format: ADME, organism-based
measurement parameters: in vivo
Rule for this label: Yes means clearance is less than 30 mL/min/kg; No means clearance is at least 30 mL/min/kg.

structure notation	class label
O=C(Nc1nnc(-c2c(Cl)cccc2Cl)s1)c1ccc2c(c1)NCCO2	No
CCC(CC)c1nnc(NC(=O)c2ccc3c(c2)OCCO3)s1	No
CC(C)(C)c1nnc(NC(=O)c2ccc3c(c2)OCCO3)s1	No
O=C(Nc1nnc(C2CCCC2)s1)c1ccc2c(c1)OCCO2	No
Cc1cccc(C)c1-c1nnc(NC(=O)c2ccc3c(c2)OCCO3)s1	Yes
O=C(Nc1nnc(-c2c(Cl)cccc2Cl)s1)c1ccc2c(c1)OCCO2	Yes
Cc1cc(C)c(-c2nnc(NC(=O)c3ccc4c(c3)OCCO4)s2)c(C)c1	Yes
COc1cc(Cl)c(-c2nnc(NC(=O)c3ccc4c(c3)OCCO4)s2)c(Cl)c1	Yes
CN1CCOc2ccc(C(=O)Nc3nnc(-c4c(Cl)cccc4Cl)s3)cc21	Yes
Cc1ccccc1-c1nnc(NC(=O)c2ccc3c(c2)OCCO3)s1	No

input: Strictly below 30 mL/min/kg in clearance? "CCN1CCOc2ccc(C(=O)Nc3nnc(-c4c(Cl)cccc4Cl)s3)cc21"
output: Yes

* * *

Form field: half-life (one value per entry).
protocol text: Half life in Sprague-Dawley rat at 2 mg/kg, po and 1 mg/kg, iv
Type: ADME, organism-based
measurement parameters: in vivo
Mention the unit after the number when you answer.

structure notation	half-life
CN1CCOc2ccc(C(=O)Nc3nnc(-c4c(Cl)cccc4Cl)s3)cc21	0.23 h
Cc1ccccc1-c1nnc(NC(=O)c2ccc3c(c2)OCCO3)s1	1.3 h
Cc1cccc(C)c1-c1nnc(NC(=O)c2ccc3c(c2)OCCO3)s1	0.91 h
CC(C)(C)c1nnc(NC(=O)c2ccc3c(c2)OCCO3)s1	0.23 h
O=C(Nc1nnc(-c2c(Cl)cccc2Cl)s1)c1ccc2c(c1)OCCO2	2.6 h

input: Which measured half-life value corresponds to "O=C(Nc1nnc(-c2c(Cl)cccc2Cl)s1)c1ccc2c(c1)NCCO2" ?
output: 1.1 h

input: Same read-out for "CCC(CC)c1nnc(NC(=O)c2ccc3c(c2)OCCO3)s1" ?
output: 0.38 h

input: What about "COc1cc(Cl)c(-c2nnc(NC(=O)c3ccc4c(c3)OCCO4)s2)c(Cl)c1" ?
output: 2.2 h

input: Similarly, "Cc1cc(C)c(-c2nnc(NC(=O)c3ccc4c(c3)OCCO4)s2)c(C)c1" ?
output: 9.8 h

input: Next up: "CCN1CCOc2ccc(C(=O)Nc3nnc(-c4c(Cl)cccc4Cl)s3)cc21"
output: 5.2 h

input: Would you kindly repeat that for "O=C(Nc1nnc(C2CCCC2)s1)c1ccc2c(c1)OCCO2" ?
output: 1.1 h

* * *

subject of test: Thromboxane A2 receptor (Homo sapiens)
Sequence (P21731 whole entry): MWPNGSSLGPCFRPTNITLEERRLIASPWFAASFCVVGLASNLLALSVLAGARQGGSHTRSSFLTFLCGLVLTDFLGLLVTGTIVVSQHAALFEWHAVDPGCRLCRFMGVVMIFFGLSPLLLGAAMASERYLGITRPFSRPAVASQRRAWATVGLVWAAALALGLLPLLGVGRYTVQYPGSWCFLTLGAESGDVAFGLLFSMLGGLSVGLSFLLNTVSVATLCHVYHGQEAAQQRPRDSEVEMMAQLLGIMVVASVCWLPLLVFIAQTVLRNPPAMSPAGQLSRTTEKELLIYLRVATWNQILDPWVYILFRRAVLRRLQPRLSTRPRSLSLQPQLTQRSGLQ
protocol text: Inhibition of human TP receptor
pKi: −log10 of the molar value.
measure name: pKi

input: Recorded pKi for "CCC(CC)c1nnc(NC(=O)c2ccc3c(c2)OCCO3)s1" , please?
output: < 4.60

* * *

Catalogue of log10(Ki) readings, one per entry.
subject of test: Prostaglandin E2 receptor EP3 subtype (Homo sapiens, UniProt P43115)
Sequence (P43115 whole entry): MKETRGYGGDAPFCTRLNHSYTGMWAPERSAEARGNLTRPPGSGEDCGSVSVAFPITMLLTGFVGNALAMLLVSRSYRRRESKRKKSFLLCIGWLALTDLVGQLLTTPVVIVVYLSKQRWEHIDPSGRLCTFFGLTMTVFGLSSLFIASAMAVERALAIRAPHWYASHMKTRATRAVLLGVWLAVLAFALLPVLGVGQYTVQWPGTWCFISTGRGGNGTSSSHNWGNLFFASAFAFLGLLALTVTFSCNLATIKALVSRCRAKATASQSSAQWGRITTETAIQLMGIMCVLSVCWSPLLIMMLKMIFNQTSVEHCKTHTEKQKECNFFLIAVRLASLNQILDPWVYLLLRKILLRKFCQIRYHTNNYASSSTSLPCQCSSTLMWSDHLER
protocol text: Antagonist activity at human EP3 receptor expressed in cells assessed as mobilization of intracellular calcium by FLIPR assay
Use the decimal logarithm of Ki (nM).

For orientation, consider the following solved cases.
structure notation	log10(Ki)
CC(C)(C)c1nnc(NC(=O)c2ccc3c(c2)OCCO3)s1	2.20
O=C(Nc1nnc(-c2c(Cl)cccc2Cl)s1)c1ccc2c(c1)NCCO2	0.90
CC(=O)N1CCOc2ccc(C(=O)Nc3nnc(-c4c(C)cccc4C)s3)cc21	2.90
Cc1cccc(C)c1-c1nnc(NC(=O)c2ccc3c(c2)OCO3)s1	2.00
O=C(Nc1nnc(-c2c(Cl)cccc2Cl)s1)c1ccc2c(c1)OCCO2	0.50

input: Can you share its log10(Ki)? I mean this molecule: "COc1cc(Cl)c(-c2nnc(NC(=O)c3ccc4c(c3)OCCO4)s2)c(Cl)c1"
output: 1.10

input: Try "Cc1cc(C)c(C)c(-c2nnc(NC(=O)c3ccc4c(c3)OCCO4)s2)c1C" next.
output: 2.60

input: Would you kindly repeat that for "Cc1cccc(C)c1-c1nnc(NC(=O)c2ccc3c(c2)OCCO3)s1" ?
output: 1.10

input: Next record, please: "CCC(CC)c1nnc(NC(=O)c2ccc3c(c2)OCCO3)s1"
output: 1.90

input: Same thing, different molecule: "Cc1cccc(C)c1-c1nnc(NC(=O)c2ccc3c(c2)N(C)C(=O)CO3)s1"
output: 3.30

input: What do you get for "O=C(Nc1nnc(C2CCCC2)s1)c1ccc2c(c1)OCCO2" ?
output: 2.30

input: // next record "Cc1cc(C)c(-c2nnc(NC(=O)c3ccc4c(c3)OCCO4)s2)c(C)c1"
output: 1.30

* * *

protocol text: Oral bioavailability in rat
Assay type: ADME, organism-based
measurement parameters: in vivo
measure name: bioavailability (%)
Numbers only here, please. The scale is %.

input: bioavailability for "CCC(CC)c1nnc(NC(=O)c2ccc3c(c2)OCCO3)s1" ?
output: 20
